Entry source: paper PMC3298469

biological target: CXCR3 (Homo sapiens); assay: [125I]hCXCL10 competition binding (SPA, Ba/F3 membranes); set-up: expressed in transfected cells; host or cells: mouse pro-B Ba/F3 cells (vector pME18Sneo), membrane preparation; details: range over both radioligands CXCL10 and CXCL11; read-out: IC50 for displacing radiolabeled CXCL10 and CXCL11 from human CXCR3
Sequence (P49682 whole entry): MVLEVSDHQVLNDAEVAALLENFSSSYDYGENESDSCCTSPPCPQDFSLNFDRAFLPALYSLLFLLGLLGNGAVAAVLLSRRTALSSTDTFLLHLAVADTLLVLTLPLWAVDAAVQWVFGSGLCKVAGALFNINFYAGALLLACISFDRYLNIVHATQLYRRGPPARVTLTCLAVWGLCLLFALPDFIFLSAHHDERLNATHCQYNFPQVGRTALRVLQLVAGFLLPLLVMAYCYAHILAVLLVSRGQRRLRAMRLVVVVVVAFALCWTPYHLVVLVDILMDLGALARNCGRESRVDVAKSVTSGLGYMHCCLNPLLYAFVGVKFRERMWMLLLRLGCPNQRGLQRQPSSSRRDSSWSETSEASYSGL
propertyLabel: IC50

Specify reported IC50 for the molecule shown: "CC[C@H]1CN(c2nc(N)c(C(N)=O)nc2Cl)CCN1C1CCN(Cc2ccc(Cl)cc2)CC1"
0.8 to 2.2 nM

----------
Experiment: plasma pharmacokinetics after oral dosing in Lewis rat
Format: in vivo
Details: 10 mg/kg oral in 0.4% methylcellulose, n = 3, read-out: AUC (0-24 hr)
Protocol: SCH 546738 was tested at concentrations of 1-10 μM against a panel of 49 GPCR binding assays. Most of the assays were not affected by SCH 546738 (Table 2). […] In addition, SCH 546738 has a favourable pharmacokinetic profile in rodents. […] Figure 4 Plasma concentration versus time profiles of SCH 546738 in Lewis rat and C57BL/6 mouse. […] The plasma concentration of SCH 546738 in the blood was calculated as the mean of 3 animals (n = 3) at indicated time points post-dose. […]
propertyLabel: AUC(0-t) (µM·h)
Only the number, expressed in µM·h, is required.

Specify reported AUC(0-t) for the compound shown: CC[C@H]1CN(c2nc(N)c(C(N)=O)nc2Cl)CCN1C1CCN(Cc2ccc(Cl)cc2)CC1 [SCH 546738]
7.7
